Target: T1, mouse MAdCAM expressed on cells (mouse, UniProt Q61826 22-405)
T1 construct: whole, on cells
T1 sequence (looked up): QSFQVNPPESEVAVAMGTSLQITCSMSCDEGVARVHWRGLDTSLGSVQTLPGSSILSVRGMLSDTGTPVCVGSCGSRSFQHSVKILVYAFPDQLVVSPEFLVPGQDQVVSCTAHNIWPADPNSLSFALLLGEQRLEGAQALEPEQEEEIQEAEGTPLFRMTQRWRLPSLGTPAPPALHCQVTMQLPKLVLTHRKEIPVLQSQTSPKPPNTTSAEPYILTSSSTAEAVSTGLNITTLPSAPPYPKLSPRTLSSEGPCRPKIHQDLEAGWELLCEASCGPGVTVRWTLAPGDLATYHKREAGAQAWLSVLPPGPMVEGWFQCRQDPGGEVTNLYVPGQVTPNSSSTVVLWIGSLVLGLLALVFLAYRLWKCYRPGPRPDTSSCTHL
Assay: cell binding
propertyMeasured: binding result

Prompt: Reported binding result for MAdCAM Antibody Table 1 Clone 27 (scFv) scFv: QVQLVQSGAEVKKPGASVKVSCKASGYTFTGYYIHWVRQAPGQGLEWMGWMNPNSGNTGYAQKFQGRVTMTRDTSTSTVYMELSSLRSEDTAVYYCARDPGFLGYCSGGSCYDGWFDPWGQGTLVTVSSGGGGSGGGGSGGGGSGGGGSDIQMTQSPSSLSASVGDRVTITCRASQSISSYLHWYQQKPGKAPKLLIYAASSLQSGVPSRFSGSGSGTDFTLTISSLQPEDFATYYCQQSYTAPYTFGQGTKLEIK : what is it?
Response: no binding

Prompt: Next binder: MAdCAM Antibody Table 1 Clone 43 (scFv) scFv: EVQLLESGGGLVQPGGSLRLSCAASGFTFDDFAMHWVRQAPGKGLEWVSGISGNGDSRYYADSVKGRFTISRDNSKNTLYLQMNSLRAEDTAVYYCARDASYGGNYGMDVWGQGTTVTVSSGGGGSGGGGSGGGGSGGGGSDIQMTQSPSSLSASVGDRVTITCQASQDIRNYLNWYQQKPGKAPKLLIYKASTLESGVPSRFSGSGSGTDFTLTISSLQPEDFATYYCQQANSFPLTFGPGTKVDIK
Response: no binding

Prompt: Next binder: MAdCAM Antibody Table 1 Clone 66 (scFv) scFv: EVQLLESGGGLVQPGGSLRLSCAASGFTFSSYWMHWVRQAPGKGLEWVAAISYDGKYKDYEDSVKGRFTISRDNSKNTLYLQMNSLRAEDTAVYYCARENKQWLASFDYWGQGTLVTVSSGGGGSGGGGSGGGGSGGGGSDIQMTQSPSSLSASVGDRVTITCQASQDISNFVNWYQQKPGKAPKLLIYAANLRSGVPSRFSGSGSGTDFTLTISSLQPEDFATYYCQQANSFPVTFGPGTKVDIK
Response: binds

Values were extracted from patent US20210206856A1.
